Below is a list of entries, each paired with its recorded abundance fitness value.
B1: Ankyrin-1, residues 1405 to 1484; numbered along this chain, P16157 (parent)
chain: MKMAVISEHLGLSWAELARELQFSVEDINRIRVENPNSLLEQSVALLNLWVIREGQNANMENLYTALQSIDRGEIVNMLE

Variants of: B1
EXPERIMENT_DESCRIPTION: abundance fitness (aPCA) (normalised: wild type 0, dead -1); higher = more abundant; growth selection in yeast, the domain comes from the species named
STATED_CONDITIONS: Homo sapiens
QUANTITY_KIND: abundance fitness

VARIANT_DESCRIPTOR	MEASURED_RESULT
L79C	0.045
I31D	-0.918
N29A	-0.062
L47N	-0.914
L46G	-0.953
V76A	-0.423
A45C	-0.259
G55Q	-0.339
V76Q	-0.505
P36C	-0.069
S24H	-0.429
N48R	-0.006
P36A	0.016
T65V	-0.153
L49M	0.061
Q56D	-0.139
N57M	-0.075
V76M	-0.307
E80S	-0.056
S24E	-0.067
V76H	-0.465
N77D	-0.347
S69K	-0.035
V25A	0.028
V44F	0.182
R72I	-0.753
L63P	-0.805
E54D	-0.3
N48P	-1.07
A58T	-0.195
E61R	-0.316
I75F	-0.785
L46P	-0.891
I28S	-0.797
N37Q	-0.444
Q68I	-0.097
Y64D	-0.797
V76G	-0.566
N77Q	0.148
E61D	-0.1
Q68W	-0.146
N29S	-0.156
S69E	-0.042
L63T	-0.493
P36T	-0.525
E61G	-0.414
P36V	-0.666
D27N	-0.49
E54I	-0.931
E74F	-0.741
N37S	-0.064
N77A	0.084
T65M	-0.15
N29H	-0.37
L67E	-0.792
L39I	-0.41
E54T	-0.455
D71C	-0.144
V33P	-0.764
E54P	-0.977
W50F	-0.713
E41G	-0.086
L39R	-0.554
R53V	-0.847
N62F	0.034
M60G	-0.813
E74R	-0.65
L67S	-0.829
E41H	-0.161
A66F	-1.05
E41N	0.162
S43I	-0.919
L40S	-0.16
Q42W	-0.794
R30N	-0.134
N59C	-0.222
L63F	-0.632
Q42E	-0.926
G55I	-0.687
N57R	-0.191
E54Y	-0.357
N35Q	-0.247
A58E	-0.192
A58L	0.157
I31L	-0.149
L39W	-0.262
I31T	-0.774
D27S	-0.127
A45G	-0.248
E54V	-0.412
L63V	-0.136
